Hi! I'm sharing some IC50 results obtained with human FAK kinase domain (Homo sapiens).
Sequence (Q05397 384-706): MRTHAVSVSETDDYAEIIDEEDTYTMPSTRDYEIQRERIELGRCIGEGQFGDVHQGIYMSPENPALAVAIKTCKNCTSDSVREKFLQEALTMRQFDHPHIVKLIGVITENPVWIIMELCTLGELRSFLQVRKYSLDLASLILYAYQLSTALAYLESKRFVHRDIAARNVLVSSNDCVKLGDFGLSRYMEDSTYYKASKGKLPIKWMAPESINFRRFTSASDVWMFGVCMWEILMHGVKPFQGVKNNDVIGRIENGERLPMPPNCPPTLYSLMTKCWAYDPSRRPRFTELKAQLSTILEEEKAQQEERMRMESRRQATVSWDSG

Examples from the recorded data:
CCC(CC)NS(=O)(=O)c1ccccc1Nc1nc(Nc2ccc(OC3CCN(C)C3)cc2OC)ncc1Cl (centres unmarked) = 2.1 nM
CNS(=O)(=O)c1ccccc1Nc1nc(Nc2ccc(N3CCC(N4CCCCC4)CC3)cc2OC)ncc1Cl = 6.8 nM
COc1cc(OC2CCN(C)CC2)ccc1Nc1ncc(Cl)c(Nc2ccccc2S(=O)(=O)C(C)C)n1 = 3.7 nM

Value wanted: IC50 (human FAK kinase domain (Homo sapiens)) of entry CNS(=O)(=O)c1ccccc1Nc1nc(Nc2ccc(OC3CCN(C)C3)cc2OC)ncc1Br (centres unmarked)
4.8 nM

Tell me reported IC50 for `CNC(=O)c1cc(N2CCCC2)ccc1Nc1nc(Nc2ccc(N3CCOCC3)cc2OC)ncc1Cl` , tested with human FAK kinase domain (Homo sapiens).
44 nM

* * *

Below, each of the molecules is paired with its reported pIC50 value.
Molecular target: human IGF-IR (Homo sapiens, UniProt P08069)
Construct: transfected with human IGF-IR cDNA (complete human IGF-IR cDNA)
Sequence (P08069 31-1367): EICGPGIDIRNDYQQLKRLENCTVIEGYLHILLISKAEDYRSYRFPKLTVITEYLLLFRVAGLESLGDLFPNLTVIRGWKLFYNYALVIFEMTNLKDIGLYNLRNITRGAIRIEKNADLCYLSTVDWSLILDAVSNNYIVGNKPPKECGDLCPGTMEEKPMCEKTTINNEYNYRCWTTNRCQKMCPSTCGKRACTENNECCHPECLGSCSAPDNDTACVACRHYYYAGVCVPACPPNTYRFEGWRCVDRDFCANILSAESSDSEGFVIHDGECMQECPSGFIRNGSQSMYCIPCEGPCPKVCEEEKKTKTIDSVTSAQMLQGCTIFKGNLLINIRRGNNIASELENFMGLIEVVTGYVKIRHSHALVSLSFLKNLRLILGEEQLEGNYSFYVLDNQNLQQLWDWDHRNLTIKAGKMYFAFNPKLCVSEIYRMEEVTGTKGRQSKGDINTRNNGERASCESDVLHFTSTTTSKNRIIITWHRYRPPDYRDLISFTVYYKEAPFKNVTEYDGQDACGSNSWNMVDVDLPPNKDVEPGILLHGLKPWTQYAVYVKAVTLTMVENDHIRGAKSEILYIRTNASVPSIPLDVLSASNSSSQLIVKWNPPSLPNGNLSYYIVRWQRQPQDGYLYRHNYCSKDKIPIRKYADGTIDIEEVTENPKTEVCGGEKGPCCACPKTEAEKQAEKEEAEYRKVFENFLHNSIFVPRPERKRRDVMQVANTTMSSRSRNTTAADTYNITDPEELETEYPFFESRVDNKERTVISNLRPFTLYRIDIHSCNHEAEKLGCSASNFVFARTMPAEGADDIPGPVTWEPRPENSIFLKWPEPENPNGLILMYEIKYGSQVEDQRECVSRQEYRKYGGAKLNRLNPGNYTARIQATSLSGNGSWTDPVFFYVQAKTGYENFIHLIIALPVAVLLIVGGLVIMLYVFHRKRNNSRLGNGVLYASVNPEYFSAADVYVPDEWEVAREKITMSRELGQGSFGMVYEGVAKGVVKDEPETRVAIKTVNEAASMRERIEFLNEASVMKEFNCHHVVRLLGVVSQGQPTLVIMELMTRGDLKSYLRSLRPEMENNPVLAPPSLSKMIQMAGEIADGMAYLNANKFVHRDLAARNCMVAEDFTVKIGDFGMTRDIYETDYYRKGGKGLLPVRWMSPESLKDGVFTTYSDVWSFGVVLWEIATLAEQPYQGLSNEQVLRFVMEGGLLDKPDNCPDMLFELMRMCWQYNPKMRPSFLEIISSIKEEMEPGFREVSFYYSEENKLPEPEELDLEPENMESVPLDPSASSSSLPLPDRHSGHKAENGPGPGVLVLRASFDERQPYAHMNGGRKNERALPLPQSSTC
Assay: IGF-I induced IGF-IR autophosphorylation, cellular Capture ELISA
Conditions: read-out: IGF-1R IC50
Lab note: report pIC50 as minus log10 of the concentration in molar units, number only.

COc1cc(N2CCN(C)CC2)ccc1Nc1ncc(Cl)c(Nc2ccccc2S(=O)(=O)NC(C)C)n1 [Example 19-5] = 6.33
CCCS(=O)(=O)c1ccccc1Nc1nc(Nc2ccc(C(=O)N3CCOCC3)cc2OC)ncc1Cl [Example 26-20] = 6.31
CCC(C)NS(=O)(=O)c1ccccc1Nc1nc(Nc2ccc(N3CCN(C)CC3)cc2OC)ncc1Cl (stereo not shown) [Example 21-1] = 6.33

Let us move to another entry and its pIC50.
Which value of pIC50 has been reported for CNS(=O)(=O)c1ccccc1Nc1nc(Nc2ccc(OC3CCN(C)C3)cc2OC)ncc1Cl (stereo not shown) [Example 20-29] in the records?
6.51

* * *

Target: FAK (Tyr397) (Mus musculus)
Sequence (P34152 whole entry): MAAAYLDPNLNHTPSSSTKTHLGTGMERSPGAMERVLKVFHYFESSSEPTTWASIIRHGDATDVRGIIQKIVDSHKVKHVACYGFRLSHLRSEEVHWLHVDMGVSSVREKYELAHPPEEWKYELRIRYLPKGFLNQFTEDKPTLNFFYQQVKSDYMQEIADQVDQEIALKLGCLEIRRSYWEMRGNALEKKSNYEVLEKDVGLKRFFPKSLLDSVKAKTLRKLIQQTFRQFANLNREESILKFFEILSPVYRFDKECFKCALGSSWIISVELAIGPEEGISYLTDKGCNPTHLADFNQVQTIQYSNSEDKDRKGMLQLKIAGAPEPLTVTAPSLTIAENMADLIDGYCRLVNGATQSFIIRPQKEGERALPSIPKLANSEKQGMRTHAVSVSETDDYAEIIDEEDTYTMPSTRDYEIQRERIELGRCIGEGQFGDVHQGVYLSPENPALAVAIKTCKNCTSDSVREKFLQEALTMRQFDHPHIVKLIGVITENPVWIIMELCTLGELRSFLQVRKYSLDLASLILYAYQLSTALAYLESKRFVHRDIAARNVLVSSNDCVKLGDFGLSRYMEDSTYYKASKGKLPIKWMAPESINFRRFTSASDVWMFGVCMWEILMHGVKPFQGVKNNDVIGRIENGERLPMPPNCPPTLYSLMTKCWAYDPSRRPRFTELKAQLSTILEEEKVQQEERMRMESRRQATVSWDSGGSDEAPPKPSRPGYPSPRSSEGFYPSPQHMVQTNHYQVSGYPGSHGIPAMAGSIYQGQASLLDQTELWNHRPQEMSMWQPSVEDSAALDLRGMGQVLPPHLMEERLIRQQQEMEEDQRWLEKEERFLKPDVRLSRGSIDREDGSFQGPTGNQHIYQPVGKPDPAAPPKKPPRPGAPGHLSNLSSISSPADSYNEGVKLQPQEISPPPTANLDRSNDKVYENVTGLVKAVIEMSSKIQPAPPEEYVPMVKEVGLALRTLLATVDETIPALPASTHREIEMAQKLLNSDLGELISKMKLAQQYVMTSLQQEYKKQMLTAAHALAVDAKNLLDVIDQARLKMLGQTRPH
Measurement Label: IC50 (nM)
Your answer is read as nM, so omit the unit and give the number.

CCNC(=O)c1ccccc1Nc1nc(Nc2ccc(N3CCC(N4CCCCC4)CC3)cc2OC)ncc1Cl [Example 9-3] = 100
CNS(=O)(=O)c1ccccc1Nc1nc(Nc2ccc(OC3CCN(C)C3)cc2OC)ncc1Br (stereo not shown) [Example 3-82] = 200

Notebook: pull reported IC50 for FAK (Tyr397) (Mus musculus), entry CCC(CC)NS(=O)(=O)c1ccccc1Nc1nc(Nc2ccc(OC3CCN(C)C3)cc2OC)ncc1Cl (stereo not shown) [Example 23-7]
3000

Give FAK (Tyr397) (Mus musculus) IC50 for CNS(=O)(=O)c1ccccc1Nc1nc(Nc2ccc(OC3CCN(C)C3)cc2OC)ncc1Cl (stereo not shown) [Example 20-29]
200

* * *

Test system: Mouse mammary carcinoma 4T1 cells
Assay: Anchorage-independent tumor cell growth assay
Assay type: cell-based
Details: Mus musculus, 4T1
Listing: pIC50 of selected compounds
pIC50 is a log-scale quantity: -log10 of the concentration expressed in molar.

Known pIC50 results, listed for orientation:
CNS(=O)(=O)c1ccccc1Nc1nc(Nc2ccc(N3CCC(N4CCCCC4)CC3)cc2OC)ncc1Cl [Example 20-8] = 7.30
CCC(CC)NS(=O)(=O)c1ccccc1Nc1nc(Nc2ccc(OC3CCN(C)C3)cc2OC)ncc1Cl (centres unmarked) [Example 23-7] = 6.08

Please look up its pIC50: COc1cc(N2CCN(C)CC2)ccc1Nc1ncc(Cl)c(Nc2ccccc2S(=O)(=O)NC(C)C)n1 [Example 19-5]
6.17

Bench note: what pIC50 did COc1cc(OC2CCN(C)CC2)ccc1Nc1ncc(Cl)c(Nc2ccccc2S(=O)(=O)C(C)C)n1 [Example 28-19] show?
6.85

Entry CNC(=O)c1cc(N2CCCC2)ccc1Nc1nc(Nc2ccc(N3CCOCC3)cc2OC)ncc1Cl [Example 15-3] has what pIC50?
5.78
